Record form. Attribute: IC50. Fill in for each entry.
Numbers only here, please. The scale is nM.

Give the reported IC50 for COC(=O)N[C@@H]1C(=O)N2C[C@H]3[C@@H]([C@H]2C(=O)N[C@H](C#N)C[C@@H]2C[C@@H](CCCCC1(C)C)NC2=O)C3(C)C (system: UniProt P0DTD1).
4.6

Give the reported IC50 for CC1(C)CNC(=O)[C@@H]2C[C@@H](C[C@@H](C#N)NC(=O)[C@@H]3[C@@H]4[C@H](CN3C(=O)[C@H]1NC(=O)C(F)(F)F)C4(C)C)C(=O)N2 (system: UniProt P0DTD1).
18

Give the reported IC50 for CC(C)(C)C(=O)N[C@@H]1C(=O)N2C[C@H]3[C@@H]([C@H]2C(=O)N[C@H](C#N)C[C@@H]2C[C@H](NC2=O)C(=O)NCC1(C)C)C3(C)C (system: UniProt P0DTD1).
307

Give the reported IC50 for CC1(C)CNC(=O)[C@@H]2C[C@@H](C[C@@H](C#N)NC(=O)[C@@H]3[C@@H]4[C@H](CN3C(=O)[C@H]1NC(=O)OCc1ccccc1)C4(C)C)C(=O)N2 (system: UniProt P0DTD1).
8.8
